- Experimental Protocol: in vitro
- Condition Parameters: human, Caco-2, pH 7.4, Percent Recovery 1st
Structures can show the parent of a compound that is named as a salt. Non-standard residues stand in square brackets, D forms with d. Residues, ends and D or L forms follow the SMILES beside them. Dopa = N[C@@H](Cc1ccc(O)c(O)c1)C(=O)O
Readout Type: recovery at 40 min, 10 μM (%)

>>> endpoint_value("N[C@@H](Cc1ccc(O)c(O)c1)C(=O)NCC(=O)O [LD-Gly TFA salt, Levodopa Glycine TFA Salt]")
93
>>> endpoint_value("N[C@@H](CSC[C@H](NC(=O)[C@@H](N)Cc1ccc(O)c(O)c1)C(=O)O)C(=O)O (single isomer, unassigned; peak 2) [LD-LA2 TFA salt, Levodopa Lanthionine Peak 2 TFA Salt]")
79
>>> endpoint_value("N=C(N)NCCC[C@H](NC(=O)[C@@H](N)Cc1ccc(O)c(O)c1)C(=O)O [LD-Arg TFA salt, Levodopa Arginine TFA Salt]")
82
>>> endpoint_value("N[C@@H](Cc1ccc(O)c(O)c1)C(=O)O [LD (control), L-3,4-dihydroxyphenylalanine, reference compound]")
101
>>> endpoint_value("NC(=O)CC[C@H](NC(=O)[C@@H](N)Cc1ccc(O)c(O)c1)C(=O)O [LD-Gln TFA salt, Levodopa Glutamine TFA Salt] (H-[Dopa]-Gln-OH)")
81

----------
- System: human plasma
- Experimental Protocol: Protein binding, equilibrium dialysis method
- Format: in vitro ADME
- Condition Parameters: 1.0E-05M; 37° C., 4 h
Where a name gives a salt, the structure may show the parent alone. Non-standard residues stand in square brackets, D forms with d. Residues, ends and D or L forms follow the SMILES beside them. Dopa = N[C@@H](Cc1ccc(O)c(O)c1)C(=O)O
# reported % Protein Bound Mean; entries follow
Readout Type: % Protein Bound Mean (%)

>>> endpoint_value("N[C@@H](Cc1ccc(O)c(O)c1)C(=O)N[C@@H](Cc1c[nH]c2ccccc12)C(=O)O [LD-Trp TFA salt, Levodopa Tryptophan] (H-[Dopa]-Trp-OH)")
60
>>> endpoint_value("N[C@@H](Cc1ccc(O)c(O)c1)C(=O)N[C@@H](CC(=O)O)C(=O)O [LD-Asp TFA salt, Levodopa Aspartic Acid] (H-[Dopa]-Asp-OH)")
99
>>> endpoint_value("N=C(N)NCCC[C@H](NC(=O)[C@@H](N)Cc1ccc(O)c(O)c1)C(=O)O [LD-Arg TFA salt, Levodopa Arginine TFA Salt]")
35
>>> endpoint_value("NCCCC[C@H](NC(=O)[C@@H](N)Cc1ccc(O)c(O)c1)C(=O)O [LD-Lys TFA salt, Levodopa Lysine TFA Salt] (H-[Dopa]-Lys-OH)")
56
>>> endpoint_value("N[C@@H](CSC[C@@H](NC(=O)[C@@H](N)Cc1ccc(O)c(O)c1)C(=O)O)C(=O)O (single isomer, unassigned; peak 1) [LD-LA1 TFA salt, Levodopa Lanthionine Peak 1 TFA Salt]")
26
>>> endpoint_value("NC(=O)CC[C@H](NC(=O)[C@@H](N)Cc1ccc(O)c(O)c1)C(=O)O [LD-Gln TFA salt, Levodopa Glutamine TFA Salt] (H-[Dopa]-Gln-OH)")
99

----------
- Experimental Protocol: in vitro
- Condition Parameters: human, Caco-2, pH 7.4, Percent Recovery 1st
Structures can show the parent of a compound that is named as a salt. Non-standard residues stand in square brackets, D forms with d. Residues, ends and D or L forms follow the SMILES beside them. Dopa = N[C@@H](Cc1ccc(O)c(O)c1)C(=O)O
Readout Type: recovery at 40 min, 10 μM (%)

>>> endpoint_value("N[C@@H](CSC[C@@H](NC(=O)[C@@H](N)Cc1ccc(O)c(O)c1)C(=O)O)C(=O)O (single isomer, unassigned; peak 1) [LD-LA1 TFA salt, Levodopa Lanthionine Peak 1 TFA Salt]")
80
>>> endpoint_value("N[C@@H](Cc1ccc(O)c(O)c1)C(=O)N[C@@H](Cc1c[nH]c2ccccc12)C(=O)O [LD-Trp TFA salt, Levodopa Tryptophan] (H-[Dopa]-Trp-OH)")
71
>>> endpoint_value("NCCCC[C@H](NC(=O)[C@@H](N)Cc1ccc(O)c(O)c1)C(=O)O [LD-Lys TFA salt, Levodopa Lysine TFA Salt] (H-[Dopa]-Lys-OH)")
79
>>> endpoint_value("N[C@@H](Cc1ccc(O)c(O)c1)C(=O)N[C@@H](Cc1ccc(O)cc1)C(=O)O [LD-Tyr TFA salt, Levodopa Tyrosine TFA Salt] (H-[Dopa]-Tyr-OH)")
82
>>> endpoint_value("NC(=O)C[C@H](NC(=O)[C@@H](N)Cc1ccc(O)c(O)c1)C(=O)O [LD-Asn TFA salt, Levodopa Asparagine TFA Salt] (H-[Dopa]-Asn-OH)")
85

----------
- Experimental Protocol: In-vitro metabolism of LDAA compounds using liver microsomes
- Assay type: in vitro ADME, human
- Condition Parameters: incubation time 15 minutes; 1.0E−07M
Where a name gives a salt, the structure may show the parent alone. Non-standard residues stand in square brackets, D forms with d. Residues, ends and D or L forms follow the SMILES beside them. Dopa = N[C@@H](Cc1ccc(O)c(O)c1)C(=O)O
Readout Type: % Compound Remaining Mean

>>> endpoint_value("N[C@@H](CSC[C@H](NC(=O)[C@@H](N)Cc1ccc(O)c(O)c1)C(=O)O)C(=O)O (single isomer, unassigned; peak 2) [LD-LA2 TFA salt, Levodopa Lanthionine Peak 2 TFA Salt]")
"113%"
>>> endpoint_value("N[C@@H](Cc1ccc(O)c(O)c1)C(=O)O [LD (control), L-3,4-dihydroxyphenylalanine, reference compound]")
"100%"
>>> endpoint_value("N[C@@H](Cc1ccc(O)c(O)c1)C(=O)NCC(=O)O [LD-Gly TFA salt, Levodopa Glycine TFA Salt]")
"106%"
>>> endpoint_value("N[C@@H](Cc1ccc(O)c(O)c1)C(=O)N[C@@H](Cc1ccc(O)cc1)C(=O)O [LD-Tyr TFA salt, Levodopa Tyrosine TFA Salt] (H-[Dopa]-Tyr-OH)")
"91%"

----------
- Experimental Protocol: Human blood stability test
- Format: in vitro ADME
- Set-up: key: slope of % decrease of remaining compound over time; higher = faster metabolism
- Condition Parameters: slope of the percentage decrease of remaining compound; substrate 10 μM; 0-60 minutes
- Procedure: The stability of several LDAA compounds in human blood was tested. The substrate concentration was 10 μM and the incubation time 0, 5, 15, 30 and 60 minutes. The results are described in Table 19, wherein the results describe the Ke, i.e., the slope of the percentage decrease of the remaining amount of the compound, measured at each of the above time points, such that the higher the Ke the faster the metabolism.
Structures can show the parent of a compound that is named as a salt. Non-standard residues stand in square brackets, D forms with d. Residues, ends and D or L forms follow the SMILES beside them. Dopa = N[C@@H](Cc1ccc(O)c(O)c1)C(=O)O
Measured Ke, listed per entry.
Readout Type: Ke

>>> endpoint_value("N=C(N)NCCC[C@H](NC(=O)[C@@H](N)Cc1ccc(O)c(O)c1)C(=O)O [LD-Arg TFA salt, Levodopa Arginine TFA Salt]")
0.0919
>>> endpoint_value("N[C@@H](Cc1ccc(O)c(O)c1)C(=O)N[C@@H](CC(=O)O)C(=O)O [LD-Asp TFA salt, Levodopa Aspartic Acid] (H-[Dopa]-Asp-OH)")
0.0014
>>> endpoint_value("NC(=O)[C@@H](N)Cc1ccc(O)c(O)c1 [LDA (levodopa amide), levodopa amide, reference compound]")
0.0149
>>> endpoint_value("N[C@@H](CSC[C@H](NC(=O)[C@@H](N)Cc1ccc(O)c(O)c1)C(=O)O)C(=O)O (single isomer, unassigned; peak 2) [LD-LA2 TFA salt, Levodopa Lanthionine Peak 2 TFA Salt]")
0.0128
>>> endpoint_value("N[C@@H](Cc1ccc(O)c(O)c1)C(=O)N[C@@H](Cc1ccc(O)cc1)C(=O)O [LD-Tyr TFA salt, Levodopa Tyrosine TFA Salt] (H-[Dopa]-Tyr-OH)")
0.0426
>>> endpoint_value("NC(=O)C[C@H](NC(=O)[C@@H](N)Cc1ccc(O)c(O)c1)C(=O)O [LD-Asn TFA salt, Levodopa Asparagine TFA Salt] (H-[Dopa]-Asn-OH)")
0.0038
>>> endpoint_value("NCCCC[C@H](NC(=O)[C@@H](N)Cc1ccc(O)c(O)c1)C(=O)O [LD-Lys TFA salt, Levodopa Lysine TFA Salt] (H-[Dopa]-Lys-OH)")
0.0655
>>> endpoint_value("N[C@@H](CSC[C@@H](NC(=O)[C@@H](N)Cc1ccc(O)c(O)c1)C(=O)O)C(=O)O (single isomer, unassigned; peak 1) [LD-LA1 TFA salt, Levodopa Lanthionine Peak 1 TFA Salt]")
"−0.011"

----------
Recorded % Compound Remaining 1st, one value per entry.
- Experimental Protocol: In-vitro metabolism of LDAA compounds using liver microsomes
- Assay type: in vitro ADME, human
- Condition Parameters: incubation time 60 minutes; 1.0E−07M
Where a name gives a salt, the structure may show the parent alone. Non-standard residues stand in square brackets, D forms with d. Residues, ends and D or L forms follow the SMILES beside them. Dopa = N[C@@H](Cc1ccc(O)c(O)c1)C(=O)O
Readout Type: % Compound Remaining 1st (%)

>>> endpoint_value("N[C@@H](Cc1ccc(O)c(O)c1)C(=O)O [LD (control), L-3,4-dihydroxyphenylalanine, reference compound]")
72.3
>>> endpoint_value("N[C@@H](Cc1ccc(O)c(O)c1)C(=O)N[C@@H](Cc1ccc(O)cc1)C(=O)O [LD-Tyr TFA salt, Levodopa Tyrosine TFA Salt] (H-[Dopa]-Tyr-OH)")
70.8
>>> endpoint_value("N[C@@H](CSC[C@H](NC(=O)[C@@H](N)Cc1ccc(O)c(O)c1)C(=O)O)C(=O)O (single isomer, unassigned; peak 2) [LD-LA2 TFA salt, Levodopa Lanthionine Peak 2 TFA Salt]")
56.5
>>> endpoint_value("N[C@@H](CSC[C@@H](NC(=O)[C@@H](N)Cc1ccc(O)c(O)c1)C(=O)O)C(=O)O (single isomer, unassigned; peak 1) [LD-LA1 TFA salt, Levodopa Lanthionine Peak 1 TFA Salt]")
74.2
>>> endpoint_value("N[C@@H](Cc1ccc(O)c(O)c1)C(=O)NCC(=O)O [LD-Gly TFA salt, Levodopa Glycine TFA Salt]")
51.7
>>> endpoint_value("N[C@@H](Cc1ccc(O)c(O)c1)C(=O)N[C@@H](Cc1c[nH]c2ccccc12)C(=O)O [LD-Trp TFA salt, Levodopa Tryptophan] (H-[Dopa]-Trp-OH)")
55.1
>>> endpoint_value("N=C(N)NCCC[C@H](NC(=O)[C@@H](N)Cc1ccc(O)c(O)c1)C(=O)O [LD-Arg TFA salt, Levodopa Arginine TFA Salt]")
37.3

Source: patent US20220362386A1
